# experimental-details: Solution
# Type: physicochemical
# stated-conditions: phosphate buffer, pH 7
reported-metric: half-life at 50 μg/mL (h)
Enter your answer as a number in h; do not include the unit.

For the compound Cl.Nc1nc2c(ncn2COCCOC(=O)[C@@H](N)CC(=O)O)c(=O)[nH]1 , what half-life at 50 μg/mL is on record?
32

====

Overview of recorded half-life at 10 μg/mL for various compounds
# experimental-details: Stability in vitreous humor
# Type: in vitro ADME, rabbit
# stated-conditions: rabbit, vitreous humor (used as such)
Enter your answer as a number in h; do not include the unit.

{"smiles-repr": "Cl.Nc1nc2c(ncn2COCCOC(=O)[C@@H](N)CC(=O)O)c(=O)[nH]1", "unit-string": "h", "half-life at 10 μg/mL": 2.76}

For the compound Cl.Nc1nc2c(ncn2COCCOC(=O)[C@H](N)CC(=O)O)c(=O)[nH]1 , what half-life at 10 μg/mL is on record?
2.34
